- tested target: T1, GITR expressed on CHO cells (Homo sapiens (Human), UniProt Q9Y5U5 26-241)
- T1 construct: also called glucocorticoid-induced TNFR-related protein; TNFRSF18
- T1 sequence: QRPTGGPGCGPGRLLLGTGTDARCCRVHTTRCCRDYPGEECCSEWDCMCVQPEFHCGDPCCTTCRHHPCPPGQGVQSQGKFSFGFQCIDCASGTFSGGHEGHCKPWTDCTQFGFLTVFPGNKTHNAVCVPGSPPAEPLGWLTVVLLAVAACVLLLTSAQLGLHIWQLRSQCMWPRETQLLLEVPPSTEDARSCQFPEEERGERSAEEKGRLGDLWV
- protocol notes: flow cytometry on GITR-expressing CHO cells, MFI-FL4
outcome measure: EC50 (read off the curve)

Solved cases (3 shown):
binder: F2 (VHH, not shown: a dimerising Fc or GST; small tags and cut ends) VHH: QLVQSGGGLVQPGESLRLSCAASGSVFSIDSVSWFRQGPGNERELVALITGGRTTTYADSVKGRFTISRANAPNTVHLRMNSLKPEDTAVYYCNAAVSTGWGRNADDYWGQGTQVTVS
EC50 (read off the curve): ~1 nM
--
binder: B2 (VHH, not shown: a dimerising Fc or GST; small tags and cut ends) VHH: QVQLQESGGGLVQPGGSLRLSCAASGSVFSIDSMSWFRQAPGNERELVALITGGHTTTYGDSVKGRFTISRASAPNTVHLQMNSLQPEDTAVYYCNAAVSTGWGRNADDYWGQGTQVTVS
EC50 (read off the curve): ~0.7 nM
--
binder: E2 (VHH, not shown: a dimerising Fc or GST; small tags and cut ends) VHH: QVQLQESGGGLVQPGGSLRLSCAASGSVFSIDSMSWFRQAPGNERELVALITGGRTTTYADSVKGRFTISRASAPNTVYLQMNSLKPEDTAVYYCNAVVSTGWGRNADDYWGQGTQVTVS
EC50 (read off the curve): ~1 nM

Query: In one line, give reported EC50 (read off the curve) of the entry B3 (VHH, not shown: a dimerising Fc or GST) VHH: QVQLVQSGGGLVQPGGSLRLICAASGSVFSIDSMSWFRQRPGNERELVALITGGRTTTYSDSVKGRFTISRASALNTVHLQMNSLKPEDTAVYYCNAALSTGWGRDASAYWGQGTQVTVS .
Response: ~2 nM
